- Assay target: Isocitrate dehydrogenase [NADP] cytoplasmic (Homo sapiens, UniProt O75874, R132H)
- Sequence (O75874 2-414 R132H limits assumed): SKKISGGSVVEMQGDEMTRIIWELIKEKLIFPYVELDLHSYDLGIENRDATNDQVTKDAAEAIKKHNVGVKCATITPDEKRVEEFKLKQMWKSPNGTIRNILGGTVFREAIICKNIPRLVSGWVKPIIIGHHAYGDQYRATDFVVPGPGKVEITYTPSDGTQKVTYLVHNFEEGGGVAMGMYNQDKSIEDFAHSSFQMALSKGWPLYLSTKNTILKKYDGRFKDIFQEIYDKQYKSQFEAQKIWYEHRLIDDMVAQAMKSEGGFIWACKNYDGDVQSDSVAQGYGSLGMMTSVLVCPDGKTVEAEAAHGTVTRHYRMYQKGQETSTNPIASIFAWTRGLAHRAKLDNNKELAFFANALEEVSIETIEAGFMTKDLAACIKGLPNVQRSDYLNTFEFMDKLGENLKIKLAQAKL
- Experimental details: Inhibition of IDH1 R132H mutant (unknown origin) assessed as reduction in NADPH consumption using alpha-KG as substrate incubated for 5 mins by diaphorase/resazurin-coupled system
Quantity measured: IC50 (nM)

Examples from the recorded data:
[[record]]
entry_smiles = "CCc1cccc(CC)c1-n1c(C)c(C(=O)N2CCOCC2)cc(-c2nc(-c3ccc(Cl)cc3)cs2)c1=O"
obs_value = 4200

[[record]]
entry_smiles = "COc1cccc(OC)c1-n1c2c(cc(-c3nc(-c4ccc(Cl)cc4)cs3)c1=O)C(=O)CC(C)(C)C2"
obs_value = 2400

[[record]]
entry_smiles = "CCc1cccc(CC)c1-n1c(C)c(C(=O)NCCNC)cc(-c2nc(-c3ccc(Cl)cc3)cs2)c1=O"
obs_value = 870


I = CCc1cccc(CC)c1-n1c(C)c(C(=O)NCC(=O)O)cc(-c2nc(-c3ccc(Cl)cc3)cs2)c1=O
II = CCc1cccc(CC)c1-n1c(C)c(C(=O)NCCOC)cc(-c2nc(-c3ccc(Cl)cc3)cs2)c1=O
III = CC1(C)CC(=O)c2cc(-c3nc(-c4ccc(Cl)cc4)cs3)c(=O)n(-c3ccccc3C(F)(F)F)c2C1
Query: I would appreciate it if you could sort these 3 compounds by IC50, starting from the smallest number. To answer, write out the labels according to the requested order.
Reply: III, I, II
